experiment: P. aeruginosa biofilm formation inhibitors, primary screen, PAO1 strain, BacTiter-Glo luminescence, LB-PBS (AID 1144); conditions: 12 h, higher = more signal
Each item that follows carries a reported z-score.
Lab note: record just the number, no unit beside it.

Sample answers from the record:
Task: Quick one: z-score for `CC(C)[Si](C#Cc1ccc(Oc2ccccc2)cc1)(O[Si](C#Cc1ccc(Oc2ccccc2)cc1)(C(C)C)C(C)C)C(C)C` ?
Result: -0.614

Task: Quick one: z-score for `COc1ccc([Si](C)(C)[C@@H]2[C@@H](CC(=O)N3CCC[C@H]3CO)O[C@]3(C(=O)N(c4ccccc4)c4ccccc43)[C@H]2C)cc1` ?
Result: 0.439

Task: Quick one: z-score for `CC(C)C(=C=CC[C@H](O)c1ccc(OCCO)cc1)CCO` ?
Result: -0.596

Could you now consider this next molecule?
Task: Quick one: z-score for CC(C)c1ccc(NN2C(C(O)c3ccc(B(O)O)cc3)C=CC3C(=O)N(c4ccccc4)C(=O)C32)cc1 (configuration not stated) ?
Result: -1.06

----------
Each item that follows carries a reported composite z-score.
molecular target: Torsin-1A (Homo sapiens) (UniProt O14656); test: torsin A binders from cell lysate, primary screen, small-molecule microarray, wild-type, 635/667 nm (AID 1149); settings: COS7 hTOR1A-WT lysate, 635 nm fluorescence, higher = more signal
Sequence (O14656 whole entry, looked up): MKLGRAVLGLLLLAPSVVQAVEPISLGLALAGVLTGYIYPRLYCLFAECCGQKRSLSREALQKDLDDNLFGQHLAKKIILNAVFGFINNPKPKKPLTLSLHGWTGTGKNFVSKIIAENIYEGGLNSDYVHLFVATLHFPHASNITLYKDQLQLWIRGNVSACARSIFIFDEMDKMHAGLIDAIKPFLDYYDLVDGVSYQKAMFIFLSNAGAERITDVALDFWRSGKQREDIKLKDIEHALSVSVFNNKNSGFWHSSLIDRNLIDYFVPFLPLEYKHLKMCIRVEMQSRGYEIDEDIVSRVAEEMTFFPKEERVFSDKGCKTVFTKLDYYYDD
Lab note: record just the number, no unit beside it.

Sample answers from the record:
Task: Quick one: composite z-score for `CCOC(=O)C[C@H]1[C@H](OC(=O)c2ccc(C(=O)c3ccccc3)cc2)[C@@H](NC(=O)CC(C)C)c2cc(OCCCO)ccc2N1C(=O)c1ccc2ccccc2n1` ?
Result: 0.396

Task: Quick one: composite z-score for CCCCN1CC=CC23O[C@@H]4C=CCCOC(=O)C4[C@H]2C(=O)N(CCCCCCO)[C@@H]3C1=O (stereo not given in full) ?
Result: -1.22

Task: Quick one: composite z-score for `CN(C)CCCC[C@@H]1NC(=O)[C@H]2C[C@@H](C(=O)NCCCCCCN)[C@@H](c3ccc(O)cc3)N2C1=O` ?
Result: 1.13

Continuing:
Task: Quick one: composite z-score for `COCCOC(=O)N1C(=O)[C@@]2(c3cc(C#Cc4ccc(OC)cc4)ccc31)[C@H](c1ccccc1OCCO)N1[C@H](c3ccccc3)[C@H](c3ccccc3)OC(=O)[C@H]1[C@@H]2C(=O)NC[C@H](O)c1ccccc1` ?
Result: 0.175

Task: Quick one: composite z-score for CCCCCN1CC=CC23O[C@@H]4C=CCCOC(=O)C4[C@H]2C(=O)N(CCCCCO)[C@@H]3C1=O (stereo not given in full) ?
Result: 1.82

----------
test: HepG2 cell viability effects, profiling panel, calcein-AM fluorescence, 48 h, basal (AID 1164); details: higher = more signal; further: test concentration not given here
Classes by z-score: A: < -0.2; B: ≥ -0.2 and < 0.6; C: ≥ 0.6

See these solved cases before continuing.
Task: Which class holds `COC(=O)C(CC#Cc1ccc2c(c1)[C@]1(C(=O)N2)[C@H](C(=O)Nc2nc3ccccc3s2)[C@H]2C(=O)O[C@H](c3ccccc3)[C@H](c3ccccc3)N2[C@@H]1c1ccccc1OCCO)C(=O)OC` ?
Result: B

Task: Which class holds `COC(=O)[C@@]1(Cc2ccc(F)cc2)[C@H]2c3cc(C(=O)N(C)C)n(Cc4ccccc4)c3C[C@H]2CN1C(=O)c1ccccc1` ?
Result: A

Task: Which class holds `C=C(CCCC)/C(=C/C[C@@H](OC(C)=O)c1ccc(OCCO)cc1)c1cnc2ccccc2c1` ?
Result: C

Continuing:
Task: Which class holds `COC(=O)[C@@]1(Cc2ccc(OC)cc2)[C@H]2c3cc(C(=O)N(C)C)n(Cc4ccc(S(C)(=O)=O)cc4)c3C[C@H]2CN1C(=O)c1ccccc1` ?
Result: C

Task: Which class holds `CCCC[C@@H]1C[C@H]1[C@@H](NC(=O)c1cccs1)c1ccc(-c2ccccc2)cc1` ?
Result: B

Task: Which class holds `COCC(=C=CC[C@@H](O)c1cccc(OCCO)c1)C[C@@H](O)c1ccccn1` ?
Result: B

Task: Which class holds `COC(=O)C[C@H]1O[C@]2(C(=O)N(C)c3ccccc32)[C@@H](C)[C@@H]1[Si](C)(C)F` ?
Result: C

Task: Which class holds CC1CC/C=C\[C@H]2OC34C=CCN(C(C)(C)C)C(=O)[C@H]3N(C(C)CO)C(=O)[C@@H]4C2C(=O)O1 (some centres not stated) ?
Result: B

Task: Which class holds `COc1ccc(C#Cc2ccc3c(c2)[C@]2(C(=O)N3)[C@H](c3ccccc3OCCO)N3[C@H](c4ccccc4)[C@H](c4ccccc4)OC(=O)[C@H]3[C@@H]2C(=O)Nc2nc3ccccc3s2)cc1` ?
Result: A

Task: Which class holds Cc1ccccc1C(O)C1C=CC2C(=O)N(c3ccccc3)C(=O)C2N1Nc1ccc(C(C)C)cc1 (configuration not stated) ?
Result: B

Task: Which class holds CC1(C)[C@@H]2CC(C(O)C3C=CC4C(=O)N(Cc5ccccc5)C(=O)C4N3n3cnnc3)=C[C@H]1C2 (some centres not stated) ?
Result: B

Task: Which class holds `O=C(c1ccccc1)N1C(=O)[C@]2(COC(c3ccc(OCCCO)cc3)=N2)Cc2ccccc21` ?
Result: A

Task: Which class holds `COC(=O)C(CC#Cc1ccc2c(c1)[C@]1(C(=O)N2)[C@H](C(=O)Nc2nc3ccccc3s2)[C@H]2C(=O)O[C@H](c3ccccc3)[C@H](c3ccccc3)N2[C@@H]1c1ccc(O)cc1)C(=O)OC` ?
Result: C
